Target: human B1R receptor (hB1R) (Homo sapiens, UniProt P46663)
Construct: host or cells: CHO K1 cells
Sequence (P46663 whole entry): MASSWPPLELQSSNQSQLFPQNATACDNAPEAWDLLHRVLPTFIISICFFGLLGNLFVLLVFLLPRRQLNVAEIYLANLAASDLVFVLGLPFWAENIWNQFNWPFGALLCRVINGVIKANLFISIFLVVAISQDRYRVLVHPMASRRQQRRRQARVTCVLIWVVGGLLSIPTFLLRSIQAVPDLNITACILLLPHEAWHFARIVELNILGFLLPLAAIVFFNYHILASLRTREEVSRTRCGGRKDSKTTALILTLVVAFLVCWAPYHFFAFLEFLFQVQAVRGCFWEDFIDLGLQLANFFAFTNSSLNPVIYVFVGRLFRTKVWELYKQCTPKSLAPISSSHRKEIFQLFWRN
Assay: FLIPR Ca2+ assay on human bradykinin 1 receptor (CHO K1 hB1R cells)
Type: cell-based
Settings: test substance 10 μM; CHO K1 cells with human B1R gene; agonist Lys-Des-Arg9-bradykinin 0.5 nM; compared to maximum achievable inhibition
Can you tell me inhibition at 10 µM for the items I'm about to list?
Quick reminder: number only, in %, skip the unit.

// returns reported inhibition at 10 µM for input COc1cc(C)c(S(=O)(=O)N(CCOCC(=O)N2CCn3cccc3C2C)Cc2ccccc2)c(C)c1C (stereo not shown)
34

Record request: inhibition at 10 µM value, item COc1cc(C)c(S(=O)(=O)N(C)CCOCC(=O)N2CCn3c(CN(C)C)ccc3C2c2cccs2)c(C)c1 (stereo not shown)
102

I would be grateful if you could share the reported inhibition at 10 µM for COc1cc(C)c(S(=O)(=O)N(CCOCC(=O)N2CCn3c(CN4CCOCC4)ccc3C2c2ccccc2)Cc2ccccc2)c(C)c1C (stereo not shown) .
82

I would be grateful if you could share the reported inhibition at 10 µM for COc1cc(C)c(S(=O)(=O)N(C)CCOCC(=O)N2CCn3cccc3C2c2ccc(C(C)(C)C)cc2)c(C)c1C (stereo not shown) .
47

Need inhibition at 10 µM of COc1cc(C)c(S(=O)(=O)N(C)CCOCC(=O)N2CCn3ccnc3C2)c(C)c1 , thanks.
85

What measured inhibition at 10 µM goes with COc1cc(C)c(S(=O)(=O)N(CCOCC(=O)N2CCn3c(CN(C)C)ccc3C2c2cccs2)CC(C)C)c(C)c1C (stereo not shown) ?
101

Need inhibition at 10 µM, item COc1cc(C)c(S(=O)(=O)N(CCOCC(=O)N2CCn3c(CN4CCCCC4)ccc3C2c2ccccc2)CC(C)C)c(C)c1C (stereo not shown)
103

The measurements presented in this section are drawn from patent US8263598B2.
